- System: P388 mice T cell leukemia cells
- experimentalDetails: Cytotoxicity by MTT assay in P388 cells
- Type: cell-based, mouse
- studyConditions: P388 mouse leukemia cells, 37° C., 72 h, 5% CO2
assayReadout: pIC50
Answers are plain numbers, as −log10 of the molar value.

# return pIC50 for each item in the list
1. O=C(OC1C#CCCCCC#C/C1=C\c1cccc2ccccc12)c1cccc2cc3ccccc3cc12 (stereo not shown) [Compound 41]
2. COCC(=O)OC1C#CCCCCC#C/C1=C\c1ccccc1 (stereo not shown) [Compound 31]
3. COCC(=O)OC(/C1=C/C#CCCCCC#C1)c1ccc2ccccc2c1 (stereo not shown) [Compound 43b]
4. CC(=O)OC1C#CCCCCC#C/C1=C\c1cccc2ccccc12 (stereo not shown) [Compound 30b]
5. COc1ccc(COCC(=O)OC2C#CCCCCC#C/C2=C\c2cccc3ccccc23)cc1 (stereo not shown) [Compound 39]
6. CCC(=O)OC1C#CCCCCC#C/C1=C\c1cccc2ccccc12 (stereo not shown) [Compound 36]
7. COc1ccc(/C=C2\C#CCCCCC#CC2OC(C)=O)cc1 (stereo not shown) [Compound 30a]

1. 4.96
2. 4.64
3. 5.02
4. 5.62
5. 4.01
6. 5.00
7. 4.82

# return pIC50 for each item in the list
1. COCC(=O)OC(/C1=C/C#CCCCCC#C1)c1cccc2ccccc12 (stereo not shown) [Compound 43a]
2. CCCCCCCC(=O)OC1C#CCCCCC#C/C1=C\c1cccc2ccccc12 (stereo not shown) [Compound 37]
3. CC(=O)OC1C#CCCCCC#C/C1=C\c1ccccc1CO (stereo not shown) [Compound 35a]
4. COCC(=O)OC(/C1=C/C#CCCCCC#C1)c1ccccc1CO (stereo not shown) [Compound 48]

1: 5.42; 2: 4.89; 3: 4.68; 4: 5.09

# return pIC50 for each item in the list
1. COCC(=O)OC(/C1=C/C#CCCCCC#C1)c1ccccc1 (stereo not shown) [Compound 42]
2. COCC(=O)OC1C#CCCCCC#C/C1=C\c1cccc2ccccc12 (stereo not shown) [Compound 32b]

1. 5.11
2. 4.92

###

Please go through the items and note down their IC50.
- System: P388 mice T cell leukemia cells
- experimentalDetails: Cytotoxicity by MTT assay in P388 cells
- Assay type: cell-based, mouse
- studyConditions: P388 mouse leukemia cells, 37° C., 72 h, 5% CO2
Give bare numbers, in µM.

Examples with answers:
CC(=O)OC1C#CCCCCC#C/C1=C\c1ccccc1 (centres unmarked): 48
COCC(=O)OC1C#CCCCCC#C/C1=C\c1ccc2ccccc2c1 (centres unmarked) [Compound 32c]: 28

Turning now to a further molecule:
Specify measured IC50 for COCC(=O)OC1C#CCCCCC#C/C1=C\c1ccccc1CO (centres unmarked) [Compound 35b] .
16

###

- Test system: P388 mice T cell leukemia cells
- experimentalDetails: Cytotoxicity by MTT assay in P388 cells
- Assay type: cell-based, mouse
- studyConditions: Mus musculus; P388 cells
Please go through the items and note down their pIC50.
Numbers only, as −log10 of the molar value.

CC(=O)OC1C#CCCCCC#C/C1=C\c1cccc2ccccc12 (centres unmarked) [Compound 30b]: 5.62

Specify measured pIC50 for CC(=O)OC1C#CCCCCC#C/C1=C\c1ccc2ccccc2c1 (centres unmarked) [Compound 30c] .
5.55
